// data source = paper PMC3039689

compounds and their reported pEC50
- target-of-assay: luciferase-transfected Leishmania donovani
- protocol-notes: Anti-leishmanial efficacy (EC50) in the ex vivo splenic explant model
- Format: cell-based
- condition-parameters: ex vivo splenic explant, 48 h, luminometry; at least two experiments; compound from screened library; read-out: Ex vivo model EC50 Mean
- Protocol: To establish the plate assay for drug screening, the spleens from 2 infected hamsters were aseptically removed and placed in a Petri dish containing 5 mL of Collagenase D (Roche) at 2 mg/mL of buffer (10 mM Hepes pH 7.4, 150 mM NaCl, 5 mM KCl, 1 mM MgCl2, 1.8 mM CaCl2). […] The anti-leishmanial efficacy of the compounds was determined using the splenic explant model in a 96-well plate format. […] The number of surviving parasites was determined by luminometry as described above.
// scale note: pEC50 = -log10(conc_M); give the bare number

Below: 4 compounds and their reported pEC50.
- CCCC(c1cc(C(C)(C)C)c(O)cc1C)c1cc(C(C)(C)C)c(O)cc1C: 5.03
- CC[C@@H](C(=O)[C@@H](C)[C@@H](O)[C@H](C)CCc1ccc(C)c(O)c1C(=O)O)[C@H]1O[C@](CC)([C@H]2CC[C@](O)(CC)[C@H](C)O2)C[C@@H]1C [Lasalocid Sodium]: 5.05
- O=c1c2ccccc2sc2c(CO)ccc(NCCN3CCCCC3)c12: 5.04
- CSc1ccc2c(c1)N(CCCN(C)C)c1ccccc1S2: 4.89

Q) Under luciferase-transfected Leishmania donovani: pEC50 value of CCC1=C(CC2NCCc3cc(OC)c(OC)cc32)CC2c3ccccc3CCN2C1 (stereo not shown) ?
A) 5.06

Q) Under luciferase-transfected Leishmania donovani: pEC50 value of c1ccc2c(c1)Sc1ccccc1N2CC1CN2CCC1CC2 (stereo not shown) ?
A) 5.07

Q) Under luciferase-transfected Leishmania donovani: pEC50 value of "C=C1C(=O)O[C@@H]2[C@H]1CC[C@H](C)[C@]1(O)C=CC(=O)[C@@]21C" ?
A) 5.06

Q) Under luciferase-transfected Leishmania donovani: pEC50 value of "O=C1C=C2C=C[C@H]3C[C@]2(O1)[C@@H]1CCCCN13" ?
A) 5.06

Q) Under luciferase-transfected Leishmania donovani: pEC50 value of "CC(C)=CC(=O)O[C@H]1[C@H]2[C@H](OC(=O)[C@H]2C)[C@H](O)[C@@H](C)[C@@H]2C=CC(=O)[C@]21C" ?
A) 5.05

Q) Under luciferase-transfected Leishmania donovani: pEC50 value of CC[C@@H](C(=O)[C@@H](C)[C@@H](O)[C@H](C)[C@@H]1O[C@@H]([C@@H](CC)C(=O)O)CC[C@@H]1C)[C@H]1O[C@]2(C=C[C@@H](O)[C@]3(CC[C@@](C)([C@H]4CC[C@](O)(CC)[C@H](C)O4)O3)O2)[C@H](C)C[C@@H]1C [Salinomycin, Sodium] ?
A) 5.13

* * *

compounds and their reported EC50
- Tested on: luciferase-transfected Leishmania donovani
- protocol-notes: Anti-leishmanial efficacy (EC50) in the ex vivo splenic explant model
- Format: cell-based
- condition-parameters: Leishmania donovani; 50% reduction in parasite counts in the ex vivo model; read-out: EC50 Mean (Table S2)
Structures can show the parent of a compound that is named as a salt.
Don't forget the unit after the number, please.

Below: 5 compounds and their reported EC50.
• CC[n+]1c(-c2ccccc2)c2cc(N)ccc2c2ccc(N)cc21 [Homidium Bromide] = 11.9 µM
• CCCCCC[C@H]1C(=O)O[C@H](C)[C@H](NC(=O)c2cccc(NC=O)c2O)C(=O)O[C@@H](C)[C@@H]1OC(=O)CC(C)C [ANTIMYCIN A] = 11.6 µM
• CN(C)CCCN1c2ccccc2Sc2ccc(Cl)cc21 = 15.1 µM
• C=C1C(=O)O[C@H]2[C@H]1CC/C(C)=C/CC[C@@]1(C)O[C@@H]21 [Parthenolide] = 13.3 µM
• CO[C@@H]1C[C@@H](C[C@H]2CC[C@H](C)[C@H]([C@@H](C)C(=O)O)O2)O[C@]2(O[C@](C)([C@H]3CC[C@@](C)([C@@H]4O[C@@H]([C@H]5O[C@@](O)(CO)[C@H](C)C[C@@H]5C)C[C@@H]4C)O3)C[C@H]2C)[C@@H]1C [Nigericin, monosodium salt] = 3.13 µM

Q) May I ask what EC50 has been recorded for "Cc1cc(O)ccc1Cl" ?
A) 8.02 µM

Q) May I ask what EC50 has been recorded for "CC[C@@H](C(=O)O)[C@@H]1O[C@@H]([C@@H](C)[C@H](O)[C@H](C)C(=O)[C@H](CC)[C@H]2O[C@]3(C=C[C@@H](O)[C@]4(CC[C@@](C)([C@H]5CC[C@](O)(CC)[C@H](C)O5)O4)O3)[C@H](C)C[C@@H]2C)[C@@H](C)C[C@@H]1C" ?
A) 13.3 µM

Q) May I ask what EC50 has been recorded for "C[C@]12C(=O)C=CCC1=CC[C@@H]1[C@@H]2CC[C@@]2(O)C(=O)O[C@@]3(C)[C@H]4C[C@]5(C)[C@@H](CO[C@@]16O[C@]23[C@H]5C6=O)C(=O)O4" ?
A) 8.59 µM
